System: MDA-MB-435
protocol details: NCI tumour cell line growth inhibition, 48 h
Peptide text beside a SMILES is read from it. * marks the point of attachment. Cbz = O=C(OCc1ccccc1)*
Rule: y for TGI not less than 6 µM, n for anything less.

{"molecule": "O=C1c2ccccc2-c2c1c1ccc([N+](=O)[O-])cc1c(=O)n2CCN1CCOCC1", "group": "y"}
{"molecule": "CC[C@H](C)C(=O)O[C@H]1C[C@@H](C)C=C2C=C[C@H](C)[C@H](CC[C@@H]3C[C@@H](O)CC(=O)O3)[C@H]21", "group": "y"}
{"molecule": "COc1ccc(N2C(=O)C3c4[nH]c5ccc(OC)cc5c4C4CCC(c5ccccc5)CC4C3C2=O)cc1 (stereo not drawn)", "group": "y"}
{"molecule": "O=c1oc2ccccc2c(O)c1Cc1ccccc1Cc1c(O)c2ccccc2oc1=O", "group": "y"}
{"molecule": "CCOC(=O)CCC(NC(=O)CNC(=O)CNC(=O)C(CCC(=O)OCC)NC(=O)C(CCC(=O)OCC)NC(=O)C(CCC(=O)OCC)NC(=O)OCc1ccccc1)C(=O)NC(CCC(=O)OCC)C(=O)NC(CCC(=O)OCC)C(=O)OCC (stereo not drawn) (Cbz-E(OEt)E(OEt)E(OEt)GGE(OEt)E(OEt)E(OEt)-OEt; configuration not given here)", "group": "y"}
{"molecule": "CCN(CC)CCC(CNc1c(C)cnc2cc(Cl)ccc12)c1ccc(Cl)c(Cl)c1 (stereo not drawn)", "group": "n"}
{"molecule": "O=C1NC(=O)C23C(=O)NC(=O)C12C1C=CC3CC1 (stereo not drawn)", "group": "y"}
{"molecule": "NCCNc1nc2ccc(F)cc2c2c(=O)c3cc(F)ccc3sc12", "group": "n"}
{"molecule": "COc1ccc(-n2nc(C(=O)NCC(=O)Nc3nc4cc(OC)ccc4s3)c3ccccc3c2=O)cc1", "group": "y"}
{"molecule": "COc1c(OC)c(OC)c2c(=O)c(OC)c(-c3ccc4c(c3)OCO4)oc2c1OC", "group": "y"}
{"molecule": "CC(C)C(=O)/C=C/c1ccc(Cl)cc1Cl", "group": "y"}
{"molecule": "COc1ccc(/C=N/C2=NNC(C)(c3ccccc3O)N2C(Cc2c[nH]c3ccccc23)C(=O)O)cc1 (stereo not drawn)", "group": "n"}
{"molecule": "CCCC(=O)Nc1cc(/C=C/C(=O)N2CC(CCl)c3c2cc(OC(C)=O)c2[nH]cc(C)c32)n(C)c1 (stereo not drawn)", "group": "n"}
{"molecule": "COc1ccc(C#CC2=C(Br)C(=O)OC2)cc1", "group": "y"}
{"molecule": "Cc1cc(=O)[nH]c(Sc2ccc([N+](=O)[O-])cc2[N+](=O)[O-])n1", "group": "y"}
{"molecule": "COc1ccccc1CC1(O)OC(=O)c2ccccc21 (stereo not drawn)", "group": "y"}
{"molecule": "Cc1ccc(Nn2c(SCC(=O)Nc3nc(-c4ccccc4)cs3)nc(C)c2C)cc1", "group": "y"}

----------
System: A498 renal
protocol details: NCI tumour cell line growth inhibition, 48 h

{"molecule": "C#CCn1c2c(c3ccccc3c1=O)C(=O)c1ccccc1-2", "units": "µM", "value comparator": "=", "TGI": 82.9}
{"molecule": "Clc1ccc(C2=Cc3nc2c(-c2ccccc2)c2ccc([nH]2)c(-c2ccccc2)c2nc(c(-c4ccccc4)c4ccc([nH]4)c3-c3ccccc3)C=C2)cc1", "units": "µM", "value comparator": ">", "TGI": 62.5}
{"molecule": "COC(=O)C[C@@H]1CC=CC(=O)/C1=C(O)/C=C/c1ccccc1", "units": "µM", "value comparator": "=", "TGI": 3.82}
{"molecule": "Oc1c(O)c(Cc2ccccc2)c(Cc2ccccc2)c(Cc2ccccc2)c1Cc1ccccc1", "units": "µM", "value comparator": ">", "TGI": 10}
{"molecule": "O=C(C[n+]1ccn(CC(OCc2ccc(Cl)cc2Cl)c2ccc(Cl)cc2Cl)c1)c1ccc(F)cc1 (stereo not given)", "units": "µM", "value comparator": "=", "TGI": 3.36}

----------
Quick reference for TGI among some compounds
System: SK-OV-3 ovarian
protocol details: NCI tumour cell line growth inhibition, 48 h

{"compound": "CN1CCN(c2ccc(NC(=O)c3cncnc3Nc3ccc4c(ccn4Cc4cccc(F)c4)c3)cc2)CC1", "measured on": "SK-OV-3 ovarian", "TGI": "9.78 µM"}
{"compound": "N#Cc1n[nH]n(-c2ccccc2)c1=O", "measured on": "SK-OV-3 ovarian", "TGI": "> 100 µM"}
{"compound": "C#C[C@]1(O)[C@@H](CO)O[C@@H](n2ccc(=O)[nH]c2=O)[C@@H]1O", "measured on": "SK-OV-3 ovarian", "TGI": "> 100 µM"}
{"compound": "CC(C(=O)c1ccc(O)cc1)C1(O)C(=O)Nc2c(Cl)cc(Cl)cc21 (centres undefined)", "measured on": "SK-OV-3 ovarian", "TGI": "> 100 µM"}
{"compound": "c1ccc(C[N+]23C(CC[C@H]2c2ccccc2)CC[C@H]3c2ccccc2)cc1 (some centres undefined)", "measured on": "SK-OV-3 ovarian", "TGI": "> 100 µM"}
{"compound": "N#CCc1ccccc1/C(C#N)=C1/OC(=N)C(c2ccccc2CC#N)C1=O (centres undefined)", "measured on": "SK-OV-3 ovarian", "TGI": "> 100 µM"}
{"compound": "Cn1c(=S)c2[nH]c(SCc3cccnc3)nc2n(C)c1=O", "measured on": "SK-OV-3 ovarian", "TGI": "> 100 µM"}
{"compound": "CC(C)=CC1(C)/C(=N\\O)C(C)(CC(C)C)C(=O)N1O (centres undefined)", "measured on": "SK-OV-3 ovarian", "TGI": "> 100 µM"}
{"compound": "CC(=O)O[C@H]1C(=O)[C@@]2(C)[C@H]([C@H](OC(=O)c3ccccc3)[C@]3(O)C[C@H](OC(=O)[C@H](O)[C@@H](NC(=O)C(C)(O)C(C)O)c4ccccc4)C(C)=C1C3(C)C)[C@]1(OC(C)=O)CO[C@@H]1C[C@@H]2O (some centres undefined)", "measured on": "SK-OV-3 ovarian", "TGI": "10.9 µM"}

----------
Each entry below carries its recorded GI50.
Test system: SF-295 CNS
protocol details: NCI tumour cell line growth inhibition, 48 h

{"compound": "CCC1C[N+]2=C(c3cc(OC)c(OC)cc3CC2)c2c1cc1n2CCc2cc(OC)c(OC)cc2-1 (configuration not stated)", "GI50": "6.37 µM"}
{"compound": "COc1ccccc1N1CCN(CC(O)Cn2c(=O)c3c(OC)nc(C)cc3c(=O)n2-c2ccccc2)CC1 (configuration not stated)", "GI50": "25.8 µM"}
{"compound": "NCCNc1nc2ccc(F)cc2c2c(=O)c3cc(F)ccc3sc12", "GI50": "1.88 µM"}
{"compound": "Cc1ccc(Nn2c(SCC(=O)Nc3nc(-c4ccccc4)cs3)nc(C)c2C)cc1", "GI50": "1.06 µM"}
{"compound": "O=C(/C=C/c1cc(O)ccc1O)c1ccc(Cl)cc1", "GI50": "35.3 µM"}
{"compound": "COc1ccc(-c2cncn2-c2ccc(-c3nc4cc(OC)c(OC)c(OC)c4s3)cc2)cc1N", "GI50": "4.44 µM"}
{"compound": "COc1ccc(C#CC2=C(Br)C(=O)OC2)cc1", "GI50": "10.5 µM"}

----------
Test system: SK-MEL-28 melanoma
protocol details: NCI tumour cell line growth inhibition, 48 h

{"compound": "O=C(/C=C/c1cc(O)ccc1O)c1ccc(Cl)cc1", "measured on": "SK-MEL-28 melanoma", "TGI": "> 100 µM"}
{"compound": "O=C(Cc1ccc(-c2ccc(OCCN3CCOCC3)cc2)cn1)NCc1ccccc1", "measured on": "SK-MEL-28 melanoma", "TGI": "> 100 µM"}
{"compound": "CCCCc1n(Cc2ccc3ccccc3n2)cc[n+]1Cc1ccc2ccccc2c1", "measured on": "SK-MEL-28 melanoma", "TGI": "2.59 µM"}
{"compound": "CCN(CC)CCC(CNc1c(C)cnc2cc(Cl)ccc12)c1ccc(Cl)c(Cl)c1 (stereo unspecified)", "measured on": "SK-MEL-28 melanoma", "TGI": "3.83 µM"}
{"compound": "O=C(Cc1ccccc1)Nc1nc2ccc(Cl)cc2c2nc(-c3ccco3)nn12", "measured on": "SK-MEL-28 melanoma", "TGI": "> 100 µM"}
{"compound": "O=CCC(O)C(O)C(O)CO (stereo unspecified)", "measured on": "SK-MEL-28 melanoma", "TGI": "> 100 µM"}

----------
Tested on: MALME-3M melanoma
protocol details: NCI tumour cell line growth inhibition, 48 h
TGI by entry:

{"compound": "O=c1oc2ccccc2c(O)c1Cc1ccccc1Cc1c(O)c2ccccc2oc1=O", "measured on": "MALME-3M melanoma", "value comparator": ">", "TGI, µM": 100}
{"compound": "CC(CCCCNC(=O)OC(C)(C)C)NC(=O)NC(C)CCCCNC(=O)OC(C)(C)C (stereo not given)", "measured on": "MALME-3M melanoma", "value comparator": ">", "TGI, µM": 100}
{"compound": "Cc1c2ccccc2cc2cccc[n+]12", "measured on": "MALME-3M melanoma", "value comparator": "=", "TGI, µM": 27.9}
{"compound": "COc1ccc([C@H]2[C@@H]3CCc4ccccc4C3=NN2C(N)=S)cc1OC", "measured on": "MALME-3M melanoma", "value comparator": ">", "TGI, µM": 100}
{"compound": "COc1ccc2c(ccc3oc([N+](=O)[O-])cc32)c1", "measured on": "MALME-3M melanoma", "value comparator": "=", "TGI, µM": 0.314}
{"compound": "COC(=O)C(Cc1ccccc1)NP(=O)(O)OCC1OC(n2ccc(N)nc2=O)C(O)C1O (stereo not given)", "measured on": "MALME-3M melanoma", "value comparator": ">", "TGI, µM": 100}
{"compound": "CN1CCC(n2cnc(-c3ccc(F)cc3)c2-c2ccnc(Nc3ccccc3)n2)CC1", "measured on": "MALME-3M melanoma", "value comparator": "=", "TGI, µM": 12.4}
{"compound": "Cc1c(-c2cc(-c3ccccc3)n[nH]c2=O)c2ccccc2n1C", "measured on": "MALME-3M melanoma", "value comparator": ">", "TGI, µM": 100}
{"compound": "C=C(CN(C)C)C(=O)c1ccccc1Cl", "measured on": "MALME-3M melanoma", "value comparator": "=", "TGI, µM": 31.7}
{"compound": "O=c1c2cc(Br)ccc2n(C2OC(CO)C(O)C(O)C2O)c(=S)n1-c1ccccc1 (stereo not given)", "measured on": "MALME-3M melanoma", "value comparator": ">", "TGI, µM": 100}
{"compound": "O=C(O)C(C(F)(F)F)C(F)(F)F (tested in a mixture with another compound)", "measured on": "MALME-3M melanoma", "value comparator": ">", "TGI, µM": 100}
{"compound": "Cc1cc(O)cc(-c2nn(C)cc2-c2cc(N3CCOCC3)nc(-c3cccnc3)n2)c1", "measured on": "MALME-3M melanoma", "value comparator": "=", "TGI, µM": 40.3}
{"compound": "CC(=O)OCCC/C(=C/c1cc2ccccc2c2ccccc12)[N+](=O)[O-]", "measured on": "MALME-3M melanoma", "value comparator": "=", "TGI, µM": 3.38}
{"compound": "COc1ccc2c3c([nH]c2c1)[C@H](C=C(C)C)N1C(=O)[C@@H]2CCCN2C(=O)[C@@H]1C3", "measured on": "MALME-3M melanoma", "value comparator": ">", "TGI, µM": 100}
{"compound": "CC(C)C(=O)CC(c1ccc(Br)cc1)N1N=C(C(C)C)CC1c1ccc(Br)cc1 (stereo not given)", "measured on": "MALME-3M melanoma", "value comparator": ">", "TGI, µM": 100}
{"compound": "CCOC(=O)/C=C/C1=C(Br)[C@@]2(C)CC[C@@H]3c4ccc(O)cc4CC[C@H]3[C@@H]2C1", "measured on": "MALME-3M melanoma", "value comparator": "=", "TGI, µM": 24.3}
{"compound": "COc1ccc(/C=N/NC(=O)CSc2nc(-c3ccccc3)c(-c3ccccc3)[nH]2)cc1OC", "measured on": "MALME-3M melanoma", "value comparator": "=", "TGI, µM": 35.8}
{"compound": "C#C[C@@H](OC(=O)c1ccc([N+](=O)[O-])cc1)[C@@H]1C[C@H]2O[C@@H]([C@H](C/C=C/CC)OC(=O)c3ccc([N+](=O)[O-])cc3)C[C@H]2O1", "measured on": "MALME-3M melanoma", "value comparator": ">", "TGI, µM": 100}
{"compound": "CCCCCCCCCc1cc(=O)c2c(O)cc(O)cc2o1", "measured on": "MALME-3M melanoma", "value comparator": "=", "TGI, µM": 32}
{"compound": "CCC1=C(CC2NCCc3cc(OC)c(OC)cc32)CC2c3ccccc3CCN2C1 (stereo not given)", "measured on": "MALME-3M melanoma", "value comparator": "=", "TGI, µM": 27.7}

FYI, the data here is from PubChem BioAssay (NCI).
